Every entry's value here was drawn from PubChem BioAssay.

Exercise: for every item that follows, state its recorded z-score.
experiment: S. cerevisiae RM11-1a growth modifiers, primary screen, strain RM11-1a, OD600, basal, 24 h (AID 1177); details: OD600, 24 h, higher = more signal, called active from +8 up or from −8 down;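 further: cultures grown under basal conditions with no added stressor; test concentration not given here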
One number for each entry.

Some solved entries appear below for comparison.
* COCCOC(=O)N1C(=O)[C@@]2(c3ccccc31)[C@H](c1ccccc1OCCO)N1[C@H](c3ccccc3)[C@H](c3ccccc3)OC(=O)[C@H]1[C@@H]2C(N)=O | 1.98
* CCCCCCCCCCC(O)C1C=CC2C(=O)N(c3ccccc3)C(=O)C2N1Nc1ccccc1F (centres undefined) | 0.719
* C[C@@H]1ON(c2ccc(I)cc2)[C@H](c2ccc(OC(=O)OC(C)(C)C)cc2)[C@H]1C(=O)N1C(=O)OC[C@H]1Cc1ccccc1 | 0.61

Value sought for every listed compound: z-score.
1. CC(C)[C@H]1NC(=O)[C@@]23C(=O)N[C@@H](Cc4ccccc4)C2[C@H](C)[C@@]2(C)O[C@H]2C3/C=C/CCC/C=C/CNC(=O)[C@H](Cc2ccccc2)NC1=O (some centres undefined)
2. COc1cc2c(cc1OC)CN(C(=O)[C@@H]1[C@H]3C(=O)O[C@H](c4ccccc4)[C@H](c4ccccc4)N3[C@H](c3ccc(O)cc3)[C@@]13C(=O)Nc1ccc(C#CCCO)cc13)CC2
3. CC(=O)N1CC(C(O)C2C=CC3C(=O)NC(=O)C3N2Nc2ccc(Cl)cc2Cl)c2ccccc21 (centres undefined)
4. COCCCNC(=O)[C@@H]1c2ccccc2C(=O)N(C2Cc3ccccc3C2)[C@H]1c1ccc(CO)cc1
5. COc1ccc([Si](C)(C)[C@@H]2[C@@H](CCn3cc([C@H](O)c4ccccc4)nn3)O[C@]3(C(=O)N(Cc4cccc(N5C(=O)c6cccc7cccc5c67)c4)c4ccccc43)[C@H]2C)cc1
6. CN(C)CCCCNC(=O)[C@H]1C[C@H]2C(=O)N[C@@H](CCCC[N+](C)(C)C)C(=O)N2[C@H]1c1ccc(O)cc1

Outgoing:
-0.201
1.66
1.82
-0.344
2.11
-1.11

---

Exercise: for every item that follows, state its recorded composite z-score.
test system: Plasmodium falciparum Sir2 (PF13_0152, Sir2A); assay: pfSir2 binders on small-molecule microarrays, primary screen, biochemical, small-molecule microarray, 635 nm fluorescence (AID 1098); conditions: small-molecule microarray binding, fluorescence 635 nm; higher = more signal;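 further: score merges spot fluorescence intensity with its signal-to-noise ratio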

* CC(C)CNC(=O)[C@@]1(c2ccc([N+](=O)[O-])cc2)CC(=O)N(C2CCCCC2)[C@@H]1c1ccc(CO)cc1 | 0.388
* CCCCCCCCCCC(O)C1C=CC2C(=O)N(C)C(=O)C2N1Nc1cc(OC)c(OC)c(OC)c1 (centres undefined) | 1.05
* COc1cc(NN2C(C(O)c3ccccc3)C=CC3C(=O)N(C)C(=O)C32)cc(OC)c1OC (centres undefined) | 0.618

// below: composite z-score requested for another compound
Incoming: GET /values?readout=composite z-score&item= CC(C)CNC(=O)[C@@]1(C)c2ccccc2C(=O)N(Cc2cc(C(F)(F)F)cc(C(F)(F)F)c2)[C@H]1c1ccc(CO)cc1
Outgoing: 0.386

---

assay: small-molecule binders of probe aNOTCH3, primary screen, biochemical, small-molecule microarray, 635/667 nm fluorescence (AID 1120); settings: higher = more signal;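 further: probe is a biotin-tagged antibody raised against NOTCH3 rather than NOTCH3 protein; score merges spot fluorescence near 667 nm with spot signal to noise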
MEASURED QUANTITY: composite z-score
One number for each entry.

- Cc1cccc([C@H]2C[C@H]3C(Br)=C[C@@H]2C(=O)[C@]32CO2)c1: -0.125

Value sought for every listed molecule: composite z-score.
1. COC(=O)[C@@]1(Cc2ccc(F)cc2)[C@H]2c3cc(C(=O)N(C)C)n(Cc4ccc(O)c(OC)c4)c3C[C@H]2CN1C(=O)c1ccccc1
2. CO[C@H]1O[C@H](CO)[C@@H](OC(=O)c2ccc(Br)cc2)[C@@H]2OC(=O)[C@H](Cc3ccccc3)C/C=C/C[C@@H](Cc3ccccc3)C(=O)O[C@@H]12

Outgoing:
1. 0.416
2. 0.0971
